Hello, the source for this data is PubChem BioAssay AID1159580, in case you need it.

Test: chemical genetic growth profiling, strain panel (AID 1159580);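 further: tested at 20 µM; growth read once vehicle control cultures reached saturation at 30 °C; 1 = growth at the plate median or of vehicle wells; lower values mean less growth of the strain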
Conditions: S. cerevisiae deletion strains, growth OD, locus YNL271C, strain bni1
The campaign covered roughly 5,500 compounds. About 2,000 (36%) were called active. Roughly 18% stayed inconclusive and do not appear here. No stated cut-off is given here; in the data, active means normalized growth mostly below about 0.91 (no sharp cut-off); inconclusive means no clear call, values can overlap the other calls; inactive means mostly above about 0.92. Some of the results follow.
Thanks in advance; please answer with one of these: true (1) for active, false (0) for inactive

Reference set (2 entries):
>>> cat("c1ccc2c3c([nH]c2c1)CNCC3")
"false (0)"
>>> cat("CSCCC(NC=O)C(=O)NC(C)C(=O)O (stereo not given)")
"false (0)"

Exercise: For this compound, state the assay outcome: CNc1ccccc1C(=O)O
Key: false (0)

Exercise: Next: O=C(O[C@@H]1Cc2c(O)cc(O)cc2O[C@@H]1c1cc(O)c(O)c(O)c1-c1c([C@H]2Oc3cc(O)cc(O)c3C[C@H]2O)cc(O)c(O)c1O)c1cc(O)c(O)c(O)c1
Key: false (0)

Exercise: Same for COC(=O)Oc1ccccc1C(=O)O
Key: false (0)

Exercise: Can you handle Nc1nc2c(ncn2C2C[C@H](O)[C@@H](CO)O2)c(=O)[nH]1 (stereo not given in full) next?
Key: false (0)

Exercise: Follow-up entry: Nc1ncnc2c1ncn2C1O[C@H](COP(=O)(O)O)[C@@H](O)[C@H]1O (stereo not given in full)
Key: true (1)

Exercise: Now try CO[C@H]1/C=C/O[C@@]2(C)Oc3c(C)c(O)c4c(O)c(c(/C=N/N5CCN(C)CC5)c(O)c4c3C2=O)NC(=O)/C(C)=C\C=C\C(C)[C@H](O)[C@@H](C)[C@@H](O)[C@@H](C)[C@@H](OC(C)=O)[C@@H]1C (stereo not given in full) .
Key: false (0)

Exercise: Again, but for Nc1ccc(C(=O)NCC(=O)O)cc1
Key: false (0)

Exercise: Also O=C1CCCC2C3CC(CN12)[C@@H]1CCCCN1C3 (stereo not given in full) ?
Key: false (0)

====

Experiment: chemical genetic growth profiling, strain panel (AID 1159580)
Settings: S. cerevisiae deletion strains, growth OD, locus YMR078C, strain ctf18, active compounds read low
Among all 5,500 compounds or so, about 2,000 (36%) were called active. About 18% were inconclusive and are not listed. Some of the results follow.
Catalogue of normalized growth values
Just the number, please.

Look over these answered cases.
>>> testresult("CCN(CC)CCOc1ccc2c(c1)C(=O)c1cc(OCCN(CC)CC)ccc1-2")
0.978
>>> testresult("C1CCN2C[C@@H]3C[C@H](CN4CCCC[C@@H]34)[C@H]2C1")
1

Exercise: What does the data say about its normalized growth? Entry: CCOP(=S)(OCC)SCn1c(=O)oc2cc(Cl)ccc21
Key: 0.989

Exercise: Then what about the molecule C[n+]1cccc(C(=O)[O-])c1 ?
Key: 0.998

Exercise: Repeat for the following molecule: C[C@H](N)[C@H](O)c1ccc(O)c(O)c1
Key: 0.973

====

Experiment: chemical genetic growth profiling, strain panel (AID 1159580)
Details: S. cerevisiae deletion strains, growth OD, locus YJL168C, strain set2
The campaign covered roughly 5,500 compounds. About 2,000 (36%) were called active. About 18% were inconclusive and are not listed. No stated cut-off is given here; in the data, active means normalized growth mostly below about 0.91 (no sharp cut-off); inconclusive means no clear call, values can overlap the other calls; inactive means mostly above about 0.92. The list shows a part of the results.
// classify into active, inactive

Answered examples (2):
>>> cat("CC(=O)Nc1cc([As](=O)(O)O)ccc1O")
"inactive"
>>> cat("COC(C)(C)CCC[C@H](C)C/C=C/C(C)=C/C(=O)OC(C)C")
"inactive"

Exercise: Assay result, entry CCOP(=S)(OCC)SCn1c(=O)oc2cc(Cl)ccc21 — outcome?
Key: inactive

Exercise: Try this molecule too: C[C@H]1[C@H]2CCC3C4CC=C5C[C@@H](N(C)C)CC[C@]5(C)C4CC[C@@]32CN1C (some centres not stated)
Key: inactive

====

Assay: chemical genetic growth profiling, strain panel (AID 1159580)
Settings: S. cerevisiae deletion strains, growth OD, locus YER155C, strain BEM2 (second series), active compounds read low
Among all 5,500 compounds or so, about 2,000 (36%) were called active. About 18% were inconclusive and are not listed. The list shows a part of the results.
Property: normalized growth; scope: individual compounds
Quick one: just the number, no unit, thanks!

Study these solved cases before continuing.
>>> testresult("OC[C@@H](O)[C@@H](O[C@@H]1O[C@H](CO)[C@@H](O)[C@H](O)[C@H]1O)[C@H](O)[C@@H](O)CO")
1.02
>>> testresult("NC[C@H](O)c1ccc(O)c(O)c1")
1

Exercise: Item COc1c2c(cc3c1OCO3)CCN(C)C2 has what recorded normalized growth?
Key: 1.02

Exercise: Quick one: COc1cc(C(=O)NCc2ccc(OCCN(C)C)cc2)cc(OC)c1OC
Key: 0.988

Exercise: Subsequent entry: CNC[C@@H](O)c1ccc(O)c(O)c1
Key: 0.988

Exercise: Check NCC(O)c1ccc(O)cc1 (configuration not stated) too.
Key: 0.977

Exercise: Check COc1cc2c(c(OC)c1OC)-c1ccc(OC)c(=O)cc1[C@@H](NC(C)=O)CC2 too.
Key: 1.02

Exercise: For CC(=O)NCCCCCC(=O)O then?
Key: 1.01

Exercise: Lookup CC(=O)O[C@H]1C[C@@H](OC(C)=O)C(C)(C)C2C[C@@H](OC(C)=O)[C@@]3(C)C4=CC(=O)O[C@@H](c5ccoc5)[C@]4(C)CCC3[C@]21C (some centres not stated)
Key: 0.975

Exercise: Likewise for CC(=O)O[C@@H]1CC2C(C)(C)C=CC(=O)[C@]2(C)C2CC[C@@]3(C)[C@H](c4ccoc4)OC(=O)C4OC43[C@@]21C (some centres not stated) ?
Key: 0.996

Exercise: Record: O=C(OC1Cc2c(O)cc(O)cc2OC1c1cc(O)c(O)c(O)c1-c1c(C2Oc3cc(O)cc(O)c3CC2OC(=O)c2cc(O)c(O)c(O)c2)cc(O)c(O)c1O)c1cc(O)c(O)c(O)c1 (configuration not stated)
Key: 0.994

Exercise: Please answer likewise for C1CNCCN1
Key: 1

====

Assay: chemical genetic growth profiling, strain panel (AID 1159580);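 further: tested at 20 µM; growth read once vehicle control cultures reached saturation at 30 °C; 1 = growth at the plate median or of vehicle wells; lower values mean less growth of the strain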
Conditions: S. cerevisiae deletion strains, growth OD, locus YMR205C, strain PFK2
The campaign covered roughly 5,500 compounds. About 2,000 (36%) were called active. Not shown: some 18% with an inconclusive outcome. Rule as the data show it: active = normalized growth mostly below about 0.91 (no sharp cut-off); inconclusive = no clear call, values can overlap the other calls; inactive = mostly above about 0.92. The list shows a part of the results.
# valid calls are active, inactive; nothing else

>>> cat("Oc1c(I)cc(I)c2cccnc12")
"active"

Exercise: Which outcome did this test record for the compound CC(=O)Oc1ccc(Cl)c2cccnc12 ?
Key: active

Exercise: O=C(NC(=O)c1c(F)cccc1F)Nc1ccc(Cl)cc1 , same question.
Key: inactive

Exercise: How about CS(=O)(=O)CCCCN=C=S ?
Key: active

====

Assay: chemical genetic growth profiling, strain panel (AID 1159580);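 further: tested at 20 µM; growth read once vehicle control cultures reached saturation at 30 °C; 1 = growth at the plate median or of vehicle wells; lower values mean less growth of the strain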
Conditions: S. cerevisiae deletion strains, growth OD, locus YDL108W, strain KIN28, active compounds read low
Out of some 5,500 compounds screened, about 2,000 (36%) were called active. Not shown: some 18% with an inconclusive outcome. This is one part of the list.
endpointName: normalized growth
API note: the answer field is a bare number with no unit suffix.

>>> testresult("Cn1c(CSCCOc2ccccc2)nnc1SCc1ccc(Cl)cc1Cl")
0.986
>>> testresult("CC(=O)Nc1ccc(/C=C/[N+](=O)[O-])cc1")
0.972
>>> testresult("C=CCOc1ccc(/C=C/[N+](=O)[O-])cc1")
0.1
>>> testresult("Cc1nn(Cc2ccc(C(=O)Sc3ccc(C(F)(F)F)cn3)o2)c(C)c1Br")
0.961

Exercise: Request the reported normalized growth associated with C/C(=C\c1ccc2c(c1)OCO2)[N+](=O)[O-]
Key: 0.107

Exercise: Entry to check: N#CC(C#N)=C/C=C(/Sc1nc2ccccc2s1)c1ccc(Br)cc1
Key: 0.289

Exercise: Input Cc1cc(Br)ccc1-n1c(Sc2c([N+](=O)[O-])cc(C(F)(F)F)cc2[N+](=O)[O-])nc2ccccc2c1=O
Key: 0.984

Exercise: Item: OC(CNCc1ccc(Cl)cc1)CO/N=C\C1=C(Cl)c2cc(Cl)ccc2OC1 (stereo unspecified)
Key: 0.967

Exercise: Entry to check: O=C(NCCSCc1cccc(C(F)(F)F)c1)Nc1cccc(C(F)(F)F)c1
Key: 0.999

Exercise: Try this compound next: O=C(NC(=O)c1c(F)cccc1Cl)OCc1ccc(Cl)cc1Cl
Key: 0.976

Exercise: Next compound up: O=C(Nc1ccc(N2CCOCC2)cc1)c1ccc(-n2cccn2)cc1
Key: 0.974

====

Assay: chemical genetic growth profiling, strain panel (AID 1159580);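 further: tested at 20 µM; growth read once vehicle control cultures reached saturation at 30 °C; 1 = growth at the plate median or of vehicle wells; lower values mean less growth of the strain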
Details: S. cerevisiae deletion strains, growth OD, locus YGR135W, strain pre9
Among all 5,500 compounds or so, about 2,000 (36%) were called active. Not shown: some 18% with an inconclusive outcome. Rule as the data show it: active = normalized growth mostly below about 0.91 (no sharp cut-off); inconclusive = no clear call, values can overlap the other calls; inactive = mostly above about 0.92. This is one part of the list.
Please answer using one outcome listed in yes for active, no for inactive

Example entries begin here.
>>> cat("CC(C)=CCC[C@](C)(O)C1CC=C(C)CC1 (some centres undefined)")
"no"
>>> cat("COc1cc2c(c(OC)c1OC)-c1ccc(OC)c(=O)cc1[C@@H](NC(C)=O)CC2")
"no"
>>> cat("O=C(O)c1ccccc1Nc1cccc(C(F)(F)F)c1")
"no"
>>> cat("COc1ccc(C(Cl)=C(c2ccc(OC)cc2)c2ccc(OC)cc2)cc1")
"no"
>>> cat("Cc1c(O)c(O)cc2c1CC=C1[C@@]2(C)CC[C@@]2(C)C3C[C@](C)(C(=O)O)CC[C@]3(C)CC[C@]12C (some centres undefined)")
"no"

Exercise: Please state the recorded outcome for this molecule: C=CC(C1=CC(=O)C(OC)=CC1=O)c1ccc(O)cc1 (centres undefined)
Key: no

Exercise: Next up: NCC(CC(=O)O)c1ccc(Cl)s1 (centres undefined)
Key: no

Exercise: What would you report for C=C[C@@H](C1=CC(=O)C(OC)=C(OC)C1=O)c1ccccc1 ?
Key: yes

Exercise: Also check COC(=O)[C@]1(C)CC[C@]2(C)CC[C@]3(C)C4=CCc5c(cc(O)c(O)c5C)[C@]4(C)CC[C@@]3(C)C2C1 (some centres undefined)
Key: no
